# measured on: human mAChRM1 (Homo sapiens, UniProt P11229)
# Construct: host or cells: CHO-K1
# Sequence (P11229 whole entry): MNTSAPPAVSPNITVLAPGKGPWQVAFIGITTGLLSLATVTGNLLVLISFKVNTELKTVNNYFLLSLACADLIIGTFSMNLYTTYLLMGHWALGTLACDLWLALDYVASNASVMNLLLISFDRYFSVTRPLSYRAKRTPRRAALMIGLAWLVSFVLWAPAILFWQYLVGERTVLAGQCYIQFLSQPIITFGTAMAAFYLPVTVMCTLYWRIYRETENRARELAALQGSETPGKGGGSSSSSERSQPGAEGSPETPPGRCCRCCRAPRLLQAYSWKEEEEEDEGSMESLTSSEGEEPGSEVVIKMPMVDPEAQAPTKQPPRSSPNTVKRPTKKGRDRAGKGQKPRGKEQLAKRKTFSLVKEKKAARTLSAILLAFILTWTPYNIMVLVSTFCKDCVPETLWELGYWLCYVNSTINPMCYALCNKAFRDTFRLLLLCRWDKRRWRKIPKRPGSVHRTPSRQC
# protocol summary: mAChR M1 cell-based functional assay (calcium mobilization), positive allosteric modulator activity: increase in the EC20 acetylcholine response
# condition parameters: increase in the EC20 acetylcholine response, read-out: PAM Activity Human M1 EC50
# Procedure: Chinese hamster ovary (CHO-K1) cells stably expressing rat (r)M1 were purchased from the American Type Culture Collection and cultured according to their indicated protocol. […] Calcium flux was measured using the Functional Drug Screening System (FDSS) 6000 (Hamamatsu Corporation, Tokyo, Japan) as an increase in the fluorescent static ratio. […] Agonist activity was analyzed as a concentration-dependent increase in calcium mobilization upon compound addition. […]
quantity name: pEC50
Bear in mind: pEC50 is minus log10 of a mol/L concentration; give just that figure.

Answered examples (2):
Cn1cc2c(-c3cc(F)c(CN4Cc5ncccc5C4=O)c(F)c3)ccc(C3(O)CC(F)(F)C3)c2n1	6.11
CC(C)(O)c1ccc(-c2cc(F)c(CN3Cc4ncccc4C3=O)c(Cl)c2)cc1	5.99

We next turn to a different compound, shown below.
Lookup: State its pEC50 for this compound: Cn1cc2cc(-c3ccc(CN4Cc5ncccc5C4=O)cc3)cc(C(C)(C)O)c2n1
Found: 6.02
